Just for reference, PubChem BioAssay (NCATS) is where these values come from.

test system: HeLa; experiment: Primary qHTS to identify gynecologic anti-cancer compounds using libraries of approved drugs and bioactive compounds (AID 1345084); details: Gynecologic cancer cell panel viability, ATPlite luminescence, 48 h; series mostly up to 57.5 µM; note: nearly all actives have a fitted effect of over 55% in size
Results filed as inconclusive are left out. Active and inactive are the calls of the source. Calls come from the whole dose curve; as a rule, active = well fitted cell-killing curve with a large enough effect; inconclusive = small, poorly fitted or top-dose-only effect, or effect the other way; inactive = flat fitted curve, though single readings scatter.
Outcome field: choose from active, inactive

{"columns": ["molecule", "className"],
 "data": [
  ["CN1CCC(=C2c3ccccc3Sc3ccccc32)CC1", "inactive"]
]}

# input For CCCCCCCCCCOCC(O)CN (stereo not given) , which call appears in the assay record?
# output inactive

* * *

system: AS120; assay: qHTS profiling for inhibitors of Plasmodium falciparum proliferation (AID 504749); note: nearly all actives have a fitted effect of over 60% in size; details: P. falciparum in erythrocytes, SYBR Green DNA, 72 h; series mostly up to 28.7 µM
Results filed as inconclusive are left out. The source made the active and inactive calls. Calls follow the shape of the dose curve; as a rule, active = well fitted inhibition curve with a large enough effect; inconclusive = small, poorly fitted or top-dose-only effect; inactive = flat fitted curve, though single readings scatter.
Outcome field: choose from 1.0 for active, 0.0 for inactive

{"columns": ["compound", "className"],
 "data": [
  ["Cc1c(C(N)=O)cc([N+](=O)[O-])cc1[N+](=O)[O-]", 0.0],
  ["CC(=O)c1ccc2c(c1)N(CCCN1CCC(CCO)CC1)c1ccccc1S2", 0.0],
  ["CCOC(=O)OC(C)OC1=C(C(=O)Nc2ccccn2)N(C)S(=O)(=O)c2ccccc21 (centres undefined)", 0.0]
]}

# input For "CN(C)CC/C=C1\c2ccccc2Sc2ccc(Cl)cc21" , which call appears in the assay record?
# output 1.0

# input For "O=S1(=O)c2cccc3cccc(c23)N1CCCN1CCN(c2ccc(F)cc2)CC1" , which call appears in the assay record?
# output 0.0

# input For "CN(C)CCOc1ccccc1Cc1ccccc1" , which call appears in the assay record?
# output 1.0

# input For CC(O)C(=O)O (centres undefined) , which call appears in the assay record?
# output 0.0

# input For "CCCCCCC[N+](CC)(CC)CCCCc1ccc(Cl)cc1" , which call appears in the assay record?
# output 1.0

# input For "O=C1CCC(c2ccc(-n3ccnc3)cc2)=NN1" , which call appears in the assay record?
# output 0.0

# input For "CCCCCCCCCCCCCCCCOP(=O)([O-])OCC[N+](C)(C)C" , which call appears in the assay record?
# output 0.0

# input For "CN1CCC(=C2c3ccccc3Sc3ccccc32)CC1" , which call appears in the assay record?
# output 1.0

# input For "Nc1ccc(C(=O)O)cc1" , which call appears in the assay record?
# output 0.0

# input For Cc1ccc(C(=O)C(C)CN2CCCCC2)cc1 (centres undefined) , which call appears in the assay record?
# output 0.0

* * *

system: CP335; test: qHTS profiling for inhibitors of Plasmodium falciparum proliferation (AID 504749); note: nearly all actives have a fitted effect of over 60% in size; details: P. falciparum in erythrocytes, SYBR Green DNA, 72 h; series mostly up to 28.7 µM
Records with an inconclusive call do not appear. The source made the active and inactive calls. Calls come from the whole dose curve; as a rule, active = well fitted inhibition curve with a large enough effect; inconclusive = small, poorly fitted or top-dose-only effect; inactive = flat fitted curve, though single readings scatter. Numbered stars: 1 amine (or outer) side, 2 acyl side, 3 side chain; on linkers, the order of the positions; unused ones are H or OH. Bridge positions count the residues as written; N and C are the ends. Square brackets hold non-standard residues; d marks the D form. Peptide text beside a SMILES is read from it. I, II: the chains in the order shown. Actinocin(9to1) = Cc1c2oc3c(C)ccc(C(=O)[*:1])c3nc-2c(C(=O)[*:2])c(N)c1=O; NMeV = CN[C@H](C(=O)O)C(C)C; Sar = CNCC(=O)O
Outcome field: choose from yes (active), no (inactive)

A selection of reference data follows.
{"columns": ["molecule", "className"],
 "data": [
  ["CN1CCC[C@@H]1c1cccnc1", "no"],
  ["Cc1c2oc3c(C)ccc(C(=O)N[C@@H]4C(=O)N[C@H](C(C)C)C(=O)N5CCC[C@H]5C(=O)N(C)CC(=O)N(C)[C@@H](C(C)C)C(=O)O[C@@H]4C)c3nc-2c(C(=O)N[C@@H]2C(=O)N[C@H](C(C)C)C(=O)N3CCC[C@H]3C(=O)N(C)CC(=O)N(C)[C@@H](C(C)C)C(=O)O[C@@H]2C)c(N)c1=O (I: T[dV]P[Sar][NMeV] / II: T[dV]P[Sar][NMeV]; ester I:1-I:C, II:1-II:C; linker I:N-II:N via Actinocin(9to1))", "yes"],
  ["CC(C)(C)CC(C)(C)c1ccc(O)c(Cc2ccc(Cl)cc2Cl)c1", "yes"]
]}

# input For "O=C1OC(c2ccc(O)cc2)(c2ccc(O)cc2)c2ccccc21" , which call appears in the assay record?
# output no

# input For "CCCCCCCCCCCCCCCCOP(=O)([O-])OCC[N+](C)(C)C" , which call appears in the assay record?
# output no

# input For "CC(=O)OCC(=O)NCCCOc1cccc(CN2CCCCC2)c1" , which call appears in the assay record?
# output no

# input For "COc1cc(NS(C)(=O)=O)ccc1Nc1c2ccccc2nc2ccccc12" , which call appears in the assay record?
# output yes

* * *

assay: qHTS of pediatric cancer cell lines to identify multiple opportunities for drug repurposing: Primary screen for Saos-2 cells (AID 1347097); settings: Saos-2 viability, CellTiter-Glo ATP luminescence, 48 h; series mostly up to 46 µM; note: nearly all actives have a fitted effect of over 40% in size
Results filed as inconclusive are left out. Active and inactive are the calls of the source. The call rests on the fitted dose curve; in most records, active means well fitted cell-killing curve with a large enough effect; inconclusive means small, poorly fitted or top-dose-only effect; inactive means no such curve, though single readings can be large or run the other way.
Outcome field: choose from active, inactive

# input For "C/C=C(/C(=C/C)c1ccc(O)cc1)c1ccc(O)cc1" , which call appears in the assay record?
# output active

# input For "COc1c2occc2c(OC)c2c(=O)cc(C)oc12" , which call appears in the assay record?
# output inactive

# input For "CCCCCCCCCCCCCCCCOP(=O)([O-])OCC[N+](C)(C)C" , which call appears in the assay record?
# output inactive

# input For "CC(O)(P(=O)(O)O)P(=O)(O)O" , which call appears in the assay record?
# output inactive

# input For "C[C@@H]1C[C@H]2[C@@H]3C[C@H](F)C4=CC(=O)C(Cl)=C[C@]4(C)[C@@]3(F)[C@@H](O)C[C@]2(C)[C@@]1(O)C(=O)CO" , which call appears in the assay record?
# output inactive

# input For "CC(=O)OCC(=O)NCCCOc1cccc(CN2CCCCC2)c1" , which call appears in the assay record?
# output inactive

# input For "CC(=O)OCC(=O)[C@@]1(OC(C)=O)[C@@H](C)C[C@H]2[C@@H]3C[C@H](F)C4=CC(=O)C=C[C@]4(C)[C@@]3(F)[C@@H](O)C[C@@]21C" , which call appears in the assay record?
# output inactive

# input For CCCCCCCCCCCCCCCCCC(=O)OCC(O)CO (stereo unspecified) , which call appears in the assay record?
# output inactive

# input For "NC(=O)c1cc[n+](CC2=C(C(=O)[O-])N3C(=O)[C@@H](NC(=O)Cc4cccs4)[C@H]3SC2)cc1" , which call appears in the assay record?
# output inactive

# input For "CCCN1CCCC[C@H]1C(=O)Nc1c(C)cccc1C" , which call appears in the assay record?
# output inactive

# input For "Cc1ccc(Nc2c(F)cccc2Cl)c(CC(=O)O)c1" , which call appears in the assay record?
# output inactive

# input For "C[C@@H]1C[C@H]2[C@@H]3CCC4=CC(=O)C=C[C@]4(C)[C@@]3(F)[C@@H](O)C[C@]2(C)[C@H]1C(=O)CO" , which call appears in the assay record?
# output inactive

* * *

system: TAB113; test: qHTS profiling for inhibitors of Plasmodium falciparum proliferation (AID 504749); note: nearly all actives have a fitted effect of over 60% in size; conditions: P. falciparum in erythrocytes, SYBR Green DNA, 72 h; series mostly up to 28.7 µM
Records with an inconclusive call do not appear. Activity calls are given as the source filed them. The call rests on the fitted dose curve; in most records, active means well fitted inhibition curve with a large enough effect; inconclusive means small, poorly fitted or top-dose-only effect; inactive means flat fitted curve, though single readings scatter.
Outcome field: choose from active, inactive

{"columns": ["compound", "className"],
 "data": [
  ["COc1cc(NS(C)(=O)=O)ccc1Nc1c2ccccc2nc2ccccc12", "active"],
  ["O=C1[C@H]2CCCC[C@H]2C(=O)N1CCCCN1CCN(c2nsc3ccccc23)CC1", "inactive"],
  ["CCN(CC)C(=O)/C(C#N)=C/c1cc(O)c(O)c([N+](=O)[O-])c1", "inactive"],
  ["CCCCCCCCCCOCC(O)CN (stereo unspecified)", "inactive"],
  ["CCN1CCC[C@H]1CNC(=O)c1c(OC)ccc(Br)c1OC", "inactive"]
]}

# input For "C[C@H](O)C(=O)Nc1c(I)c(C(=O)NC(CO)CO)c(I)c(C(=O)NC(CO)CO)c1I" , which call appears in the assay record?
# output inactive

* * *

test: Cellular Toxicity (caspase-3) NIH 3T3 (AID 666); conditions: NIH 3T3 caspase-3 activation, apoptosis/toxicity; series mostly up to 92.2 µM;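 note: caspase signal read after 16 h compound exposure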;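 for caspase-3 activation: 0% = DMSO basal and 100% = 100 µM tamoxifen stimulation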
Inconclusive results are not listed. Activity calls are given as the source filed them. The call rests on the fitted dose curve; in most records, active means well fitted activation curve with a large enough effect; inconclusive means small, poorly fitted or top-dose-only effect, or effect the other way; inactive means flat fitted curve, though single readings scatter.
Outcome field: choose from active, inactive

A selection of reference data follows.
{"columns": ["molecule", "className"],
 "data": [
  ["COC1=CC(=O)C[C@@H](C)[C@]12Oc1c(Cl)c(OC)cc(OC)c1C2=O", "inactive"],
  ["CC(O)C(=O)O (centres undefined)", "inactive"],
  ["C=CCc1ccc(O)c(OC)c1", "inactive"],
  ["COc1cccc2c1C(=O)c1c(O)c3c(c(O)c1C2=O)C[C@@](O)(C(C)=O)C[C@@H]3O[C@H]1C[C@H](N)[C@H](O)[C@H](C)O1", "active"],
  ["CC/C(=C(/CC)c1ccc(O)cc1)c1ccc(O)cc1", "inactive"],
  ["CC(=O)Oc1ccc(C(c2ccc(OC(C)=O)cc2)c2ccccn2)cc1", "inactive"],
  ["C[C@]12CC[C@@H]3c4ccc(O)cc4CC[C@H]3[C@@H]1CC[C@@H]2O", "inactive"],
  ["CC(=O)O[C@]1(C(C)=O)CC[C@H]2[C@@H]3C[C@H](C)C4=CC(=O)CC[C@]4(C)[C@H]3CC[C@@]21C", "inactive"]
]}

# input For "COc1cccc2c1C(=O)c1c(O)c3c(c(O)c1C2=O)C[C@@](O)(C(=O)CO)C[C@@H]3O[C@H]1C[C@H](N)[C@H](O)[C@H](C)O1" , which call appears in the assay record?
# output active
